All figures here come from PubChem BioAssay (NCI).

Catalogue of compounds with associated growth
# System: 786-0 renal
# protocol.notes: NCI-60 one-dose screen, 48 h (100 = growth as untreated, 0 = no growth, -100 = all killed)
# setup.conditions: 10 µM unless noted
This is part of a sample that, as a whole, favours compounds with a hit. Of some 83,000 tested, about 20% had one in any assay.
experimental.readout: growth (%)

1. CN1CCN(CCOc2ccc(-c3cnc4c(-c5ccc(F)cc5)cnn4c3)cc2)CC1 :: 60.3
2. CC(=O)OC(c1ccccc1)C1CCOC1=O (configuration not stated) :: 94.8
3. C=C1C(=O)O[C@H]2[C@H]1CC/C(COC(=O)c1cc3cc(Cl)ccc3[nH]1)=C\CC[C@@]1(C)O[C@@H]21 :: -90.5
4. CC[N+]1(CC)CC[N+]2(CCCC(C)CC2)CC1 (configuration not stated) :: 99.9
5. CSc1nn2c(-c3ccc4ccccc4c3)ccnc2c1C#N :: 22.2
6. CCCn1nc(C(=O)N(C)Cc2ccccc2)c2c1CCC(N1CCc3ccccc31)C2 (configuration not stated) :: 95.2
7. S=C(c1ccc2c(c1)OCO2)N1CCN(c2cccc(Cl)c2)CC1 :: 37.8
8. CCN(CC)c1ccc(/C=N/NC(=O)Cc2ccc(Nc3ccnc(C(F)(F)F)c3)cc2)c(O)c1 :: 1.44
9. CCOC(=O)c1nn(CC(O)c2ccccc2)c(NC(=O)Nc2cccc(F)c2)c1C (configuration not stated) :: 99.7
10. COc1cccc(/C=N/NC(=O)c2ccccc2N2CCCC2)c1O :: 53.4
11. O=C(Nc1ncc(Cc2cc(C(F)(F)F)ccc2Cl)s1)c1cccs1 :: 79.6
12. COc1ccc(-c2ccc(-c3ccc(C(=N)N)nc3)s2)cc1Cl :: -89.7
13. Cc1ccc(Cl)cc1NC(=O)c1sc2nc3c(cc2c1N)C(=O)CCC3 :: 89.3
14. N#C/C(=C\c1ccc([N+](=O)[O-])cc1)n1nnc2cc(F)c(F)cc21 :: -58.4
15. COc1cc(C(=O)n2nc(N3CCOCC3)c3cc(-n4cccc4)ccc32)cc(OC)c1OC :: 17.4
16. CN(C)c1ccc(-c2ccc3c(c2)c(-c2ccccc2)nc(=O)n3C)cn1 :: 26.2
17. CN1CCN(C(=S)SCCCCOc2cc(=O)oc3ccccc23)CC1 :: 96.9
18. CN(Cc1ccccc1)c1nc(Cl)c(C2CC(c3ccccc3)=NN2c2ccccc2)s1 (configuration not stated) :: 93.9
19. CC1(C)C(N)=Nc2cc(OCCCN3Cc4ccccc4C3)c(OCC3CC3)cc21 :: 64
20. CCOC(=O)CC1CSC(Nc2ccccc2)=N1 (configuration not stated) :: 98.7
21. Fc1ccc(Cn2cc(CSc3nc4ccccc4o3)nn2)cc1 :: 91.1
22. CC1CCN(C(=S)SCC(=O)NC(=O)c2ccccc2)CC1 :: 103
